target: Protein phosphatase methylesterase 1 (Homo sapiens) (UniProt Q9Y570); test: PME-1 inhibitor activity retest, confirmation, biochemical, fluorescence polarization, FP-Rh probe, triplicate (AID 2171); details: recombinant PME-1, FP-Rh probe fluorescence polarization; at 5.9 µM; stronger effect = higher value;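 further: 0% = enzyme with DMSO and 100% = wells lacking PME-1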
Sequence (Q9Y570 whole entry, looked up): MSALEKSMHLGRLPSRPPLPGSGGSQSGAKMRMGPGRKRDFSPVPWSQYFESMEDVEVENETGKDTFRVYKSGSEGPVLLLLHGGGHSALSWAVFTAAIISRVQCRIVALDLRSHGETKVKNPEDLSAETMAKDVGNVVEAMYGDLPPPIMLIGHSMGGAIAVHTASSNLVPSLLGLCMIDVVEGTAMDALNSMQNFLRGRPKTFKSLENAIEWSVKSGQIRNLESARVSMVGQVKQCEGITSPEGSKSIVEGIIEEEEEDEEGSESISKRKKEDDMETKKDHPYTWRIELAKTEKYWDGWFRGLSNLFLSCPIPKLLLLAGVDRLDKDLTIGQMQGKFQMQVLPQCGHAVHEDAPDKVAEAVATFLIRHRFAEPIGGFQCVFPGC
Label scheme for inhibition: lower than 10% is n, 10% and above is y.

Some solved entries appear below for comparison.
{"Molecule": "Oc1ccc(N=Cc2ccc(-c3cccs3)s2)cc1", "Target under test": "Protein phosphatase methylesterase 1 (Homo sapiens) (UniProt Q9Y570)", "Label value": "y"}
{"Molecule": "O=C(COc1ccccc1C(=O)N/N=C\\c1ccc(O)c(O)c1)N/N=C/c1ccc(O)c(O)c1", "Target under test": "Protein phosphatase methylesterase 1 (Homo sapiens) (UniProt Q9Y570)", "Label value": "n"}
{"Molecule": "CC1=C([N+](=O)[O-])C(c2cccc(Br)c2)C2=C(N1)c1ccccc1C2=O (stereo not given)", "Target under test": "Protein phosphatase methylesterase 1 (Homo sapiens) (UniProt Q9Y570)", "Label value": "y"}
{"Molecule": "COc1ccccc1NS(=O)(=O)c1cccc(-n2c(O)c(C=Nc3ccccc3C(=O)O)c3ccccc3c2=O)c1", "Target under test": "Protein phosphatase methylesterase 1 (Homo sapiens) (UniProt Q9Y570)", "Label value": "y"}

With those in mind, consider the next molecule.
API: above_or_equal(metric=inhibition, cutoff=10%) for item "Cc1noc(C)c1CSc1nc2ccccc2nc1NS(=O)(=O)c1ccc(Cl)cc1"
y

----------
tested on: transactivating tegument protein VP16 (Human herpesvirus 1), Gal4-VP16 luciferase reporter; experiment: VP16 transactivation inhibitors, counter-screen for SRC3 inhibitor project, cell-based, luminescence, high throughput (AID 588794); conditions: mammalian cells, VP16-driven luciferase reporter luminescence; at 3.6 µM; stronger effect = higher value
Readings of inhibition for the listed compounds
Value expressed in %; do not type the unit.

Solved cases (2 shown):
{"Smiles string": "CCN(CC)c1ccc(Nc2nc(N3CCOCC3)c3ccccc3n2)cc1", "inhibition (%)": 20.2}
{"Smiles string": "COc1ccc(CNC(=O)COC(=O)c2cc(-c3ccc(Cl)s3)nc3ccccc23)cc1", "inhibition (%)": -13.6}

Which inhibition is reported for this compound? "Cc1c(Cl)c([N+](=O)[O-])nn1Cc1ccc(C(=O)N/N=C\c2cc(Cl)ccc2O)o1"
48.7

For the compound "O=C(CCC1CCCC1)Nc1ccc(C(=O)NCc2cccnc2)cc1" , what inhibition is on record?
43.3

Need inhibition of "Cc1ccc(C)c(NC(=O)c2ccccc2NS(=O)(=O)c2cc([N+](=O)[O-])ccc2C)c1" , thanks.
25.5

----------
test: StAR promoter reporter inhibitors, counter-screen for LRH-1 inverse agonist project, cell-based, luminescence, high throughput (AID 651611); details: StAR promoter luciferase reporter counterscreen, at 3.6 µM, stronger effect = higher value
Property: inhibition (%)
# unit: % | format: bare number

Look over these answered cases.
{"Compound": "CC(Nc1ncnc2ccccc12)c1ccccc1 (stereo not given)", "Units text": "%", "inhibition": 20.9}
{"Compound": "O=C(Nc1c(F)cccc1F)c1cnc(N2CCN(c3ccccn3)CC2)c2ccccc12", "Units text": "%", "inhibition": 41.4}
{"Compound": "O=c1c2ccccc2sc2ccc(C#CC3(O)CCCCC3)cc12", "Units text": "%", "inhibition": 84.3}
{"Compound": "CC(=O)NC(Cc1c[nH]c2ccccc12)C(=O)OCC(=O)Nc1ccc2c(c1)OCO2 (stereo not given)", "Units text": "%", "inhibition": 12.4}

Quick one: inhibition of "O=C(Nc1ccc(S(=O)(=O)N2CCOCC2)cc1)c1ccc([N+](=O)[O-])o1" ?
17.6

----------
biological target: Nuclear receptor coactivator 1 (Homo sapiens) (UniProt Q15788); assay: SRC1 coactivator transcriptional activity inhibitors, confirmation, cell-based, luminescence, quadruplicate (AID 588820); conditions: HEK293 GAL4-SRC1 luciferase reporter, at 3.6 µM, stronger effect = higher value;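 further: 0% = DMSO wells and 100% = gossypol 36 µM treated wells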
Sequence (Q15788 whole entry, looked up, the tested form may be a part): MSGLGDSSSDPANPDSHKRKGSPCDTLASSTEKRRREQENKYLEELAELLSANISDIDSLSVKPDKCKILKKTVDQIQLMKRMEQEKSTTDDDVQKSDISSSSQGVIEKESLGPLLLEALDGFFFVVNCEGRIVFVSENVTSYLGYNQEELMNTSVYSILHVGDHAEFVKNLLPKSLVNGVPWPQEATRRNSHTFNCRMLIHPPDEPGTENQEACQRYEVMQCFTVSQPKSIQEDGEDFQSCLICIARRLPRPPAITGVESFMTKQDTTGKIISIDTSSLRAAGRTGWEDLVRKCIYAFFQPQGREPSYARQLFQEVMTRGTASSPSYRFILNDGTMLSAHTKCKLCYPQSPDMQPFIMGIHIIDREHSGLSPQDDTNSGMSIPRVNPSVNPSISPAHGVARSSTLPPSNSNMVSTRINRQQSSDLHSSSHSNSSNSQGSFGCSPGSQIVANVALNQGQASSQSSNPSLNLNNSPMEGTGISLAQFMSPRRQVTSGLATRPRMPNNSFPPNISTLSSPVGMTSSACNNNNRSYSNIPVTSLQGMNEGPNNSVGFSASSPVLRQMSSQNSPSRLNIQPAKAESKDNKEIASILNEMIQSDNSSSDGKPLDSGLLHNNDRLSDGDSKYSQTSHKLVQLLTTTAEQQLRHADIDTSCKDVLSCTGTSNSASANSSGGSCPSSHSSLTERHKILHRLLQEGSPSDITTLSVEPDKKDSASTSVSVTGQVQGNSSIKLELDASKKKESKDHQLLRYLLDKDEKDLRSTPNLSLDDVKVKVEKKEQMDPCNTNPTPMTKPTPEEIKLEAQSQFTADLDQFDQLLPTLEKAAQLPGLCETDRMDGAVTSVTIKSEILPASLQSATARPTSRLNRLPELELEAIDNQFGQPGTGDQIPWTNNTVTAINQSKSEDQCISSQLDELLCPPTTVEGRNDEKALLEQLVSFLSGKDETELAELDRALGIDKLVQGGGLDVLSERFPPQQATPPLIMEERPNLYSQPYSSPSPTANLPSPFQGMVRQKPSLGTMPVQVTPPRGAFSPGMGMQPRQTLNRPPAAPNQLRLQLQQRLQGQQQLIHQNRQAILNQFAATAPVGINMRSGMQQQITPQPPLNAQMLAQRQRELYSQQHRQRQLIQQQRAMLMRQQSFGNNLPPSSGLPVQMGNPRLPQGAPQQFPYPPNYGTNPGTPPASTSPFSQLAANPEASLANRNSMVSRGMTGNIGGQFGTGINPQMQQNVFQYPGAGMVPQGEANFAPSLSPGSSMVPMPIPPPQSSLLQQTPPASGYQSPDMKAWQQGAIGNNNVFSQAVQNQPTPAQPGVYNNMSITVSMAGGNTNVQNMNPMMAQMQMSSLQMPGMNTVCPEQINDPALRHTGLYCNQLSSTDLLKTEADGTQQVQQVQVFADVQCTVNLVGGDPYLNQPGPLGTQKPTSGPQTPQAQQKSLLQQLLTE
Entries and their inhibition
// note: answer is a bare numeric in %

Given "O=C(Nc1ccc(F)cc1F)c1c(C(F)(F)F)ccnc1Oc1cccc(C(F)(F)F)c1" , state its recorded inhibition.
-2.06

Look up inhibition for this compound: "CC(=O)Nc1ccc(S(=O)(=O)Nc2ccc(N3CCCCC3)cc2)cc1"
4.11

----------
target: Nuclear receptor subfamily 5 group A member 2 (Homo sapiens) (UniProt O00482); test: LRH-1 (NR5A2) inverse agonists, retest, confirmation, cell-based, luminescence (AID 651613); conditions: cell-based LRH-1 luciferase reporter, inverse agonism; at 3.6 µM;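 further: HEK293T cells co-transfected with LRH-1 and StAR promoter luciferase reporter; 0% = vehicle wells and 100% = parental cells lacking receptor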
Sequence (O00482 whole entry, looked up): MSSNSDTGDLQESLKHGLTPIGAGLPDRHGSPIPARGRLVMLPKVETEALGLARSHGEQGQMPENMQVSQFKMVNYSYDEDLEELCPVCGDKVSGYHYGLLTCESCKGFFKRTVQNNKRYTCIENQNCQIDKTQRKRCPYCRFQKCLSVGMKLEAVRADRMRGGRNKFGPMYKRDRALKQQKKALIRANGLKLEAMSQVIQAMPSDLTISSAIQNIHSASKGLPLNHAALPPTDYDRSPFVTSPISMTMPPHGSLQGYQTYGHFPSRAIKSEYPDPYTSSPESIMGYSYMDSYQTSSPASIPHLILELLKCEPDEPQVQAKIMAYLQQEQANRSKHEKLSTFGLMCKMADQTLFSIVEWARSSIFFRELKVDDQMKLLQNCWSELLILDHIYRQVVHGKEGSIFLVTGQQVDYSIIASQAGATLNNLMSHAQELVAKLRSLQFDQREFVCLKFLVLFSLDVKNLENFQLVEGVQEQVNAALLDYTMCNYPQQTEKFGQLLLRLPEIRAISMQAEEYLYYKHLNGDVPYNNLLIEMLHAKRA
Active and inactive are the calls of the source. Cut-off read from the data, not from the text of the source: active = inhibition above about 42%; inactive = the rest.
Answer with one of the outcomes active, inactive

{"Molecule": "N#Cc1c(N)n(C2OC(CO)C(O)C2O)c2ncnc(N)c12 (stereo not given)", "Label value": "active"}

Hello, I am checking results. What call was entered for "C=CC(=O)N1C/C(=C/c2ccc(F)cc2)C(=O)/C(=C\c2ccc(F)cc2)C1" ?
active

Which result was noted for this molecule in the test: "CO/N=C/C(=N\Nc1cc(OC)cc(OC)c1)C(=O)c1ccccc1"
active

Per the records of this test, what outcome belongs to "CCOc1ccc(-n2c(-c3ccc(Br)cc3)c[n+]3c2CCCCC3)cc1" ?
active

Please indicate how the test categorized "COC1=CC(=O)c2nc(Cl)ccc2C1=O" .
active

Fill in: this test's call for "O=C(CN1CCN(S(=O)(=O)c2cc(Cl)ccc2Cl)CC1)Nc1ccc2c(c1)OCCO2" is ___
active

Could you check what this test reported for COc1ccc(CC(NC(C)=O)C(=O)NC2CCN(c3nnnn3-c3ccccc3)CC2)cc1 (stereo not given) ?
active

Test call for this molecule, please: "Cc1ccc(NC(=O)c2cc(Cl)ccc2[N+](=O)[O-])cc1C"
inactive

For "Cc1cccc(NC(=O)CSC2=NN3CCCC(=O)N=C3S2)c1C" , what call appears in the results of this test?
active

What classification did "Cc1cc(NCCCCCCCNc2cc(C)nc3cc([N+](=O)[O-])ccc23)c2ccc([N+](=O)[O-])cc2n1" end up with in this test?
inactive

----------
inhibition for assorted molecules
test: VP16 transactivation reporter inhibitors, counter-screen for LRH-1 inverse agonist project, cell-based, luminescence, high throughput (AID 651615); details: Gal4-VP16 luciferase reporter cells, at 3.6 µM, stronger effect = higher value
# value in %; strip the unit string

The cases that follow already have their inhibition on record.
{"Molecule": "O=C(c1ccccc1)c1cc(-c2ccccn2)c(N2CCOCC2)s1", "Units text": "%", "Assay value": 0.02}
{"Molecule": "CN(Cc1ccccc1)C(=O)c1ccc(NC(=O)Cc2ccc(NC(=O)C3CCCN(C(=O)CCc4ccccc4)C3)cc2)cc1 (stereo not given)", "Units text": "%", "Assay value": 55.8}
{"Molecule": "Cc1ccc(N(Cc2cc(=O)[nH]c3ccccc23)C(=O)CCl)c(C)c1", "Units text": "%", "Assay value": 46}

We next turn to a different molecule, shown below.
Please report the recorded inhibition for "COc1ccc(S(=O)(=O)N2CCOCC2)cc1N=Nc1sc(N)nc1-c1ccccc1" .
-3.07

----------
test system: transactivating tegument protein VP16 (Human herpesvirus 1); test: VP16 transactivation reporter inhibitors, counter-screen for SRC2 inhibitor project, cell-based, luminescence, single concentration (AID 652007); details: cell-based VP16 transactivation luciferase reporter, at 8.9 µM
Calls of active or inactive are those of the source. Rule as the data show it: active = inhibition above about 36%; inactive = the rest.
A correct response names exactly one class from 1.0 (active), 0.0 (inactive)

{"Compound": "Cc1ccc(C2=NN(C(=O)CCl)C(c3ccco3)C2)o1 (stereo not drawn)", "Label value": 0.0}
{"Compound": "COc1cc(/C=C2\\COC/C(=C\\c3cc(OC)c(OC)c(OC)c3)C2=O)cc(OC)c1OC", "Label value": 1.0}
{"Compound": "Cc1ccc(NC(=O)c2cc(C)n(-c3ccccc3)c2C)cc1", "Label value": 1.0}

Fill in: this test's call for CCOc1ccc(N2CC(C(=O)Nc3ccc4c(c3)OCCO4)CC2=O)cc1 (stereo not drawn) is ___
0.0

Lab log entry: "Oc1cc2ccccc2cc1-c1nnc2n1-c1ccccc1SC2" — outcome as called in the assay?
0.0

Hello, I am checking results. What call was entered for "COc1ccc(-c2cc(C(=O)O)c(C)o2)cc1OC" ?
0.0

----------
target: Steroidogenic factor 1 (Homo sapiens) (UniProt Q13285); test: SF1 (NR5A1) inverse agonists, counter-screen for LRH-1 inverse agonist project, cell-based, luminescence, high throughput (AID 651614); conditions: cell-based SF1 luciferase reporter, at 3.6 µM, stronger effect = higher value;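 further: cells cotransfected with StAR promoter reporter and SF1 expression vector; 0% = vehicle on cells with receptor and 100% = vehicle on cells lacking receptor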
Sequence (Q13285 whole entry, looked up): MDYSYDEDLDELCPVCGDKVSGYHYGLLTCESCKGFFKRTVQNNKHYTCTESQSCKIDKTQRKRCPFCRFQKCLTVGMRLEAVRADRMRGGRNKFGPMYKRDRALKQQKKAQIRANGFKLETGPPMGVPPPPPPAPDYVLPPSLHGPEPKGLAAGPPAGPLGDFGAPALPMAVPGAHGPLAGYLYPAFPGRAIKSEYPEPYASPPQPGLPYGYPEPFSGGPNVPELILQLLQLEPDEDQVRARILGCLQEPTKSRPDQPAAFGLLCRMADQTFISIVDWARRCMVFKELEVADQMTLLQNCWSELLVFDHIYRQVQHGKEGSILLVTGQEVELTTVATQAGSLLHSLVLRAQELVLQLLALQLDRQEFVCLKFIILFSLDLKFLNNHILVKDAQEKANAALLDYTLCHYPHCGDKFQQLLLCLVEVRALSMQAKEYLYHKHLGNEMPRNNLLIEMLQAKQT
Give rule met when the value for inhibition is at least 70%. Give rule not met when it is less.

Record excerpt, results attached:
{"Molecule": "Cc1cc(Br)ccc1NC(=O)CN1C(=O)C2CC=CCC2C1=O (stereo unspecified)", "Label value": "rule not met"}
{"Molecule": "O=C(COc1ccc(S(=O)(=O)N2CCCC2)cc1Cl)NCc1ccc2c(c1)OCO2", "Label value": "rule not met"}
{"Molecule": "Cc1ccc[n+](CC(=O)Nc2ccc(Cl)c([N+](=O)[O-])c2)c1", "Label value": "rule not met"}
{"Molecule": "COc1cc(N(C)C)ccc1C=c1c2ccccc2n2c1cc(-c1ccccc1)[n+]2C", "Label value": "rule met"}
{"Molecule": "O=C(CSc1cc(Cl)ccc1Cl)Nc1ccc(N2CCOCC2)cc1", "Label value": "rule not met"}

Kindly determine if inhibition recorded for "O=[N+]([O-])c1ccc(Sc2cccc[n+]2[O-])c2nonc12" is above or exactly 70%.
rule met

inhibition >= 70% for "Cc1ccc(Cn2nc(C)c(NC(=O)c3noc4c3CCCCC4)c2C)cc1" ?
rule not met

Dear colleague, could you confirm whether "CCn1c2ccccc2c2cc(/C=N/n3cn[nH]c3=S)ccc21" has inhibition at or above 70%?
rule not met

Is inhibition at least 70%? Consider "CN(C)c1ccc(CNc2ncnc3sccc23)cc1"
rule not met
